Values were extracted from ChEMBL document CHEMBL1806393.

# assay.explanation: Solubility of the compound in water
# Assay type: physicochemical
# applied.conditions: buffer
measurement.label: solubility

molecule: CC(C)(O)[C@H]1CC[C@](C)([C@H](CCC(O)(CO)[C@H]2CC[C@H]3O[C@@H]([C@]4(C)CC[C@@H](Br)C(C)(C)O4)CC[C@]3(C)O2)OS(=O)(=O)O)O1 (stereo partly drawn)
result: Insoluble
--
molecule: CC(C)(O)[C@H]1CC[C@](C)([C@@H](O)CC[C@@H](CO)C2=CC[C@H]3O[C@@H]([C@]4(C)CC[C@@H](Br)C(C)(C)O4)CC[C@]3(C)O2)O1
result: Insoluble
--
molecule: CC(C)(O)[C@H]1CC[C@](C)([C@H](CCC(O)(COS(=O)(=O)O)[C@H]2CC[C@H]3O[C@@H]([C@]4(C)CC[C@@H](Br)C(C)(C)O4)CC[C@]3(C)O2)OS(=O)(=O)O)O1 (stereo partly drawn)
result: Insoluble

----------
# assay.explanation: Cytotoxicity against human MM144 cells assessed as inhibition of cell proliferation after 72 hrs by XTT assay
# Assay type: functional, cell-based
measurement.label: pIC50
// scale note: pIC50 = -log10(conc_M); give the bare number

Examples with answers:
compound: CC(C)(O)[C@H]1CC[C@](C)([C@H](CCC(O)(COS(=O)(=O)O)[C@H]2CC[C@H]3O[C@@H]([C@]4(C)CC[C@@H](Br)C(C)(C)O4)CC[C@]3(C)O2)OS(=O)(=O)O)O1 (stereo not given in full)
number: 4.50
//
compound: CC(C)(O)[C@H]1CC[C@](C)([C@@H](O)CC[C@@H](CO)C2=CC[C@H]3O[C@@H]([C@]4(C)CC[C@@H](Br)C(C)(C)O4)CC[C@]3(C)O2)O1
number: 5.14
//
compound: CC(C)(O)[C@H]1CC[C@](C)([C@@H](O)CC[C@@](O)(CO)C(=O)CC[C@H]2O[C@@H]([C@]3(C)CC[C@@H](Br)C(C)(C)O3)CC[C@]2(C)O)O1
number: 4.99
//
compound: C=C(CC[C@H](O)[C@@]1(C)CC[C@H](C(C)(C)O)O1)[C@H]1CC[C@H]2O[C@@H]([C@]3(C)CC[C@@H](Br)C(C)(C)O3)CC[C@]2(C)O1 [DEHYDROTHYRSIFEROL]
number: 4.67

Attention now turns to another entry.
Given the entry CC(C)(O)[C@H]1CC[C@](C)([C@@H](O)CCC(O)(CO)[C@H]2CC[C@H]3O[C@@H]([C@]4(C)CC[C@@H](Br)C(C)(C)O4)CC[C@]3(C)O2)O1 (stereo not given in full) , report its measured pIC50.
4.68

----------
# assay.explanation: Cytotoxicity against human MM144 cells assessed as inhibition of cell proliferation after 72 hrs by XTT assay
# Type: functional, cell-based
Listed below: IC50 values for each entry.
Note: unit µM is implicit; provide only the numeric part.

The cases that follow already have their IC50 on record.
compound: CC(C)(O)[C@H]1CC[C@](C)([C@H](CCC(O)(CO)[C@H]2CC[C@H]3O[C@@H]([C@]4(C)CC[C@@H](Br)C(C)(C)O4)CC[C@]3(C)O2)OS(=O)(=O)O)O1 (stereo partly drawn)
measurement.label: IC50
number: 13.5
--
compound: CC(C)(O)[C@H]1CC[C@](C)([C@@H](O)CC[C@@](O)(CO)C(=O)[C@H](O)C[C@H]2O[C@@H]([C@]3(C)CC[C@@H](Br)C(C)(C)O3)CC[C@]2(C)O)O1
measurement.label: IC50
number: 15.5

--- query ---
Reported IC50, compound C=C(CC[C@H](OS(=O)(=O)O)[C@@]1(C)CC[C@H](C(C)(C)O)O1)[C@H]1CC[C@H]2O[C@@H]([C@]3(C)CC[C@@H](Br)C(C)(C)O3)CC[C@]2(C)O1 : ____
18
